Assayed Target: T1, cynomolgus monkey His6-GITR (cynomolgus monkey)
T1 construct: His6-tagged recombinant protein; also called cGITR-His; cyno GITR-His
T1 chain: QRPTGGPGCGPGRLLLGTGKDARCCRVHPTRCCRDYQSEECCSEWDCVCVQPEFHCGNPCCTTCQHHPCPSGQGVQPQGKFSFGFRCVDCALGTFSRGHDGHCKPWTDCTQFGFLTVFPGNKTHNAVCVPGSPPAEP
Protocol Details: ELISA, scFv periplasmic extract on coated His6-GITR
# cGITR-His/BKG listing for each entry below
Give a bare numeral; the unit fold over background is implied.

GITR-Mab-41 scFv (scFv, V domains shown, scFv in periplasmic extract, V5 tag) VH: QVQLVQSGAEVKKPGASVKVSCKASGGSFSDYAVSWVRQAPGQGLEWMGWMNPNSGNTGYAQKFQGRVTMTRDTSTSTVYMELSSLRSEDTAVYYCARELVRDGYNFALDYWGQGTLVTVSS VL: DIQMTQSPSSLSASVGDRVTITCRASQDIRNDLAWYQQKPGKAPKLLIYAASSLQSGVPSRFSGSGSGTDFTLTISSLQPEDFATYYCQQSFSTFYTFGQGTKLEIK    10.3

Moving on to another binder below.
stdin: Give its cGITR-His/BKG value. Item: GITR-Mab-21 scFv (scFv, V domains shown, scFv in periplasmic extract, V5 tag) VH: EVQLLESGGGLVQPGGSLRLSCAASGFTFSNHYMSWVRQAPGKGLEWVAVIALDGSYRYYADSVKGRFTISRDNSKNTLYLQMNSLRAEDTAVYYCARVGPGGMDVRGQGTTVTVSS VL: DIQMTQSPSSLSASVGDRVTITCQASQDISNYLNWYQQKPGKAPKLLIYAASSLQSGVPSRFSGSGSGTDFTLTISSLQPEDFATYYCQQSYNSPRVYTFGQGTKVEIK
stdout: 21.2
